Target: MELK (human)
Assay: KINOMEscan competition binding
Conditions: compound 10.0 µM
Doc: threshold 80% (exclusive). Items with kinase still bound, per cent of control beneath it return YES; others return NO.

Worked examples, 3 compounds total:
{"columns": ["Compound", "Class name"],
 "data": [
  ["O=C(NC1CC1)c1cccc(-c2ccc3c(NC(=O)C4CC4)n[nH]c3c2)c1", "YES"],
  ["CCCS(=O)(=O)Nc1ccc(F)c(C(=O)c2c[nH]c3ncc(-c4ccc(Cl)cc4)cc23)c1F", "NO"],
  ["CC[C@@H]1C(=O)N(C)c2cnc(Nc3ccc(C(=O)NC4CCN(C)CC4)cc3OC)nc2N1C1CCCC1", "YES"]
]}

[ask] Field: below-cutoff. Rule: recorded kinase still bound, per cent of control strictly less than 80%. Subject: N#Cc1c(NC(=O)c2cccc3ccccc23)sc2c1CCCC2
[reply] NO

[ask] Problem: For the compound COc1cc(C(=O)NC2CCN(C)CC2)ccc1Nc1ncc2c(n1)N(C1CCCC1)C(C)CC(=O)N2C (stereo not given) , is kinase still bound, per cent of control under 80%?
[reply] NO

[ask] I'd appreciate it if you could check whether C[C@@H](Oc1cc(-n2cnc3ccc(CN4CCN(C)CC4)cc32)sc1C(N)=O)c1ccccc1C(F)(F)F has kinase still bound, per cent of control smaller than 80%.
[reply] YES

[ask] Is kinase still bound, per cent of control of Cc1ccc(C(=O)Nc2cccc(C(F)(F)F)c2)cc1Nc1cncc(C(N)=O)c1 strictly below 80%?
[reply] NO

[ask] Take the compound CCC(=O)N1CCN(c2ccc(-n3c(=O)ccc4cnc5ccc(-c6cnc7ccccc7c6)cc5c43)cc2C(F)(F)F)CC1 and say whether its kinase still bound, per cent of control is less than 80%.
[reply] YES

[ask] Consider the compound O=C1Nc2ccc(I)cc2/C1=C/c1cc(Br)c(O)c(Br)c1 . Is its kinase still bound, per cent of control strictly less than 80%?
[reply] NO

[ask] Is 80% strictly greater than the compound's reported kinase still bound, per cent of control? compound: C=CC(=O)Nc1cccc(Nc2nc(N[C@H]3CC[C@H](N(C)C)CC3)nc3c2ncn3C(C)C)c1
[reply] YES

[ask] Lab note: kinase still bound, per cent of control threshold 80%. Does this compound come in strictly under it? COc1cc(N2CCN(C)CC2)ccc1Nc1nc(N)c(C(=O)c2c(Cl)cccc2Cl)s1
[reply] NO

[ask] Below 80% on kinase still bound, per cent of control? Entry CN(C)C/C=C/C(=O)Nc1cccc(Nc2ncc3c(n2)N(C)c2ccccc2C(=O)N3C)c1
[reply] YES

[ask] Does the reported kinase still bound, per cent of control of Cc1cc([C@@H](C)Nc2ccccc2C(=O)O)c2nc(N3CCOCC3)cc(=O)n2c1 stay below 80%?
[reply] NO

[ask] Below 80% on kinase still bound, per cent of control? Entry Cc1ccc2nc(NCCN)c3ncc(C)n3c2c1
[reply] NO

[ask] Below 80% on kinase still bound, per cent of control? Entry C=CC(=O)Nc1cccc(Oc2nc(Nc3ccc(N4CCN(C)CC4)cc3OC)ncc2Cl)c1
[reply] YES

[ask] Please let me know if C=CC(=O)Nc1cc(NC(=O)c2ccc(C)c(NC(=O)c3ccno3)c2)cc(C(F)(F)F)c1 shows kinase still bound, per cent of control below 80%.
[reply] NO

###

What kinase still bound, per cent of control was measured for each of the following?
Target: UniProt:P43405
Test: KINOMEscan competition binding
Settings: compound 10.0 µM
Answers are plain numbers, in %.

{"columns": ["Molecule", "kinase still bound, per cent of control (%)"],
 "data": [
  ["O=C(NOC[C@H](O)CO)c1ccc(F)c(F)c1Nc1ccc(I)cc1F", 100],
  ["Cn1c(=O)n(-c2ccc(C(C)(C)C#N)cc2)c2c3cc(-c4cnc5ccccc5c4)ccc3ncc21", 100],
  ["Cc1cc([C@@H](C)Nc2ccccc2C(=O)O)c2nc(N3CCOCC3)cc(=O)n2c1", 100],
  ["Nc1ccc(-c2ccc3ncc4ccc(=O)n(-c5cccc(C(F)(F)F)c5)c4c3c2)cn1", 100],
  ["C=CC(=O)Nc1cccc(Oc2nc(Nc3ccc(N4CCN(C)CC4)cc3OC)ncc2Cl)c1", 100]
]}

Record kinase still bound, per cent of control per entry; entries follow.
1. OCCCNc1cc(-c2ccnc(Nc3cccc(Cl)c3)n2)ccn1
2. O=C(O)c1ccc(Nc2ncc3c(n2)-c2ccc(Cl)cc2C(c2c(F)cccc2F)=NC3)cc1
3. C[C@@H](Oc1cc(-n2cnc3ccc(CN4CCN(C)CC4)cc32)sc1C(N)=O)c1ccccc1C(F)(F)F
4. CCC(=O)N1CCN(c2ccc(-n3c(=O)ccc4cnc5ccc(-c6cnc7ccccc7c6)cc5c43)cc2C(F)(F)F)CC1
5. COc1cc(C(=O)NC2CCN(C)CC2)ccc1Nc1ncc2c(n1)N(C1CCCC1)CCC(=O)N2C(C)C
6. CN(C)C/C=C/C(=O)Nc1cccc(Nc2ncc3c(n2)N(C)c2ccccc2C(=O)N3C)c1
7. Cc1ccc(NC(=O)c2cccc(C(C)(C)C#N)c2)cc1Nc1ccc2ncn(C)c(=O)c2c1
8. COc1cc(N2CCN(C)CC2)ccc1Nc1nc(N)c(C(=O)c2c(Cl)cccc2Cl)s1

[reply]
100
78
100
78
100
50
100
59

For each of the items listed, what is its kinase still bound, per cent of control?
1. C=CC(=O)Nc1cccc(Nc2nc(N[C@H]3CC[C@H](N(C)C)CC3)nc3c2ncn3C(C)C)c1
2. CCOc1cc2ncc(C#N)c(Nc3ccc(OCc4ccccn4)c(Cl)c3)c2cc1NC(=O)/C=C/CN(C)C
3. COc1cc(C(=O)NC2CCN(C)CC2)ccc1Nc1ncc2c(n1)N(C1CCCC1)C(C)CC(=O)N2C (centres undefined)
4. Cc1ccc(C(=O)Nc2cccc(C(F)(F)F)c2)cc1Nc1cncc(C(N)=O)c1
5. N#Cc1c(NC(=O)c2cccc3ccccc23)sc2c1CCCC2

[reply]
1. 72
2. 65
3. 100
4. 100
5. 99

[ask] Entry C=CC(=O)Nc1cc(NC(=O)c2ccc(C)c(NC(=O)c3ccno3)c2)cc(C(F)(F)F)c1 needs its kinase still bound, per cent of control filled in; supply it.
[reply] 100
